Target: NS5B 1b (Hepatitis C virus genotype 1b, UniProt P26663)
Construct: a region encoding NS5B (J Virol 1991 March, 65(3), 1105-13, 544 amino acids after deletion of 47 amino acids on the C-terminal); 6 His (C)
Sequence (P26663 2420-2963): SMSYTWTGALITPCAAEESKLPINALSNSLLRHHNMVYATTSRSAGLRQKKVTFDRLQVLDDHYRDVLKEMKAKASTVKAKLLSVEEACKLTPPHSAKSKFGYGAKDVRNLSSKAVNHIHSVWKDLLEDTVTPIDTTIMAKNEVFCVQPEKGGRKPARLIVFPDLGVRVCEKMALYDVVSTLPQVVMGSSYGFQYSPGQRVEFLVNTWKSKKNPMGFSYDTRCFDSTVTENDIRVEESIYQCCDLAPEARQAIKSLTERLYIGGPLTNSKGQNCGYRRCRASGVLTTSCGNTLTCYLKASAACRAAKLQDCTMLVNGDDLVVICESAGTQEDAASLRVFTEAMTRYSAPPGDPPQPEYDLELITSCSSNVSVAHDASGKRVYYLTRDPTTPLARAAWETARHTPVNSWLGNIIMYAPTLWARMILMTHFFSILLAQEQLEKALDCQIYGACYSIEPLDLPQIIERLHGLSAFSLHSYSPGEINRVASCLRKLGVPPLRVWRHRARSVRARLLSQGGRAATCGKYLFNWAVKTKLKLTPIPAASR
Experiment: Assay of enzyme (HCV polymerase) inhibitory activity, NS5B 1b
pIC50: −log10 of the molar value. Structures can show the parent of a compound that is named as a salt.
Recorded pIC50 values for a group of compounds are listed next.

compound	pIC50
COc1ccc2c(c1)OCCn1c-2c(C2CCCCC2)c2sc(C(=O)NC3(C(=O)Nc4ccc(/C=C/C(=O)O)cc4)CCC3)cc21 [Example 37]	7.00 to 8.00
CC1CCCN(CCN2CCn3c(c(C4CCCCC4)c4sc(C(=O)O)cc43)-c3ccc(Cl)cc32)C1 (stereo not drawn) [Example 30, dihydrochloride]	> 8.00
CC(C)(C)OC(=O)N1CCN(CCN2CCn3c(c(C4CCCCC4)c4sc(C(=O)O)cc43)-c3ccccc32)CC1 [Example 11, hydrochloride]	7.00 to 8.00
CCOc1ccc2c(c1)OCCn1c-2c(C2CCCCC2)c2sc(C(=O)NC3(C(=O)Nc4ccc(/C=C/C(=O)O)cc4)CCC3)cc21 [Example 43]	7.00 to 8.00
O=C(O)c1cc2c(s1)c(C1CCCCC1)c1n2CCN(CCN2CCCOCC2)c2ccccc2-1 [Example 24, dihydrochloride]	7.00 to 8.00
CCN1CCN(C(=O)CN2CCn3c(c(C4CCCCC4)c4sc(C(=O)O)cc43)-c3ccc(Cl)cc32)CC1 [Example 36, dihydrochloride]	7.00 to 8.00

###

Biological target: NS5B 1a (Hepatitis C virus genotype 1a, UniProt P27958)
Sequence (P27958 2421-3011): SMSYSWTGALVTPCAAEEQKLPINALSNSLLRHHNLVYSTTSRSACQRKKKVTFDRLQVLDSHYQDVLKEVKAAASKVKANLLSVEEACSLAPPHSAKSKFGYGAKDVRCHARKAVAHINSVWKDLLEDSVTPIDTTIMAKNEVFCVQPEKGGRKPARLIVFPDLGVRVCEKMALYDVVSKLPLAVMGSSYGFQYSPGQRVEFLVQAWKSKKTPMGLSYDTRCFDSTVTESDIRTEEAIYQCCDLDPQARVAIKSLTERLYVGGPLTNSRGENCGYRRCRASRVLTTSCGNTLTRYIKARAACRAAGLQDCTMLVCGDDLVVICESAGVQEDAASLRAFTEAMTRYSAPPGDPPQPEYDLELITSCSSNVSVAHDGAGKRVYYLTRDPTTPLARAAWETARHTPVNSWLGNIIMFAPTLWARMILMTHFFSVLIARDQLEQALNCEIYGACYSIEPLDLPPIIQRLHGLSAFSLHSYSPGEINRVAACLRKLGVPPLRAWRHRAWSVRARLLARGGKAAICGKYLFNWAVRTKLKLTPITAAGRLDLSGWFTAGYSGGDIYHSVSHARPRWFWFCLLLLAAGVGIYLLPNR
pIC50: −log10 of the molar value. Counter-ions that a name gives are not always drawn.
observable: pIC50

compound	test.system	test.value
Cc1ccc2c(c1)N(CCN1CCCC(C)C1)CCn1c-2c(C2CCCCC2)c2sc(C(=O)O)cc21 (stereo not shown) [Example 26, dihydrochloride]	NS5B 1a (Hepatitis C virus genotype 1a, UniProt P27958)	7.00 to 8.00
COCC[C@@H]1CCCN(CCN2CCn3c(c(C4CCCCC4)c4sc(C(=O)O)cc43)-c3ccccc32)C1 [Example 23, dihydrochloride]	NS5B 1a (Hepatitis C virus genotype 1a, UniProt P27958)	7.00 to 8.00
CCOc1ccc2c(c1)N(C)CCn1c-2c(C2CCCCC2)c2sc(C(=O)O)cc21	NS5B 1a (Hepatitis C virus genotype 1a, UniProt P27958)	7.00 to 8.00
O=C(O)c1cc2c(s1)c(C1CCCCC1)c1n2CCOc2c-1cccc2N(CCN1CCOCC1)CCN1CCOCC1 [Example 46, trihydrochloride]	NS5B 1a (Hepatitis C virus genotype 1a, UniProt P27958)	7.00 to 8.00

###

Biological target: NS5B 1b (Hepatitis C virus genotype 1b)
Construct: a region encoding NS5B (J Virol 1991 March, 65(3), 1105-13, 544 amino acids after deletion of 47 amino acids on the C-terminal); 6 His (C)
Test: Assay of enzyme (HCV polymerase) inhibitory activity, NS5B 1b
Where a name gives a salt, the structure may show the parent alone.
Recorded IC50 values for a group of molecules are listed next.
observable: IC50

molecule	observable	test.value
O=C(O)c1cc2c(s1)c(C1CCCCC1)c1n2CCOc2cc(OCc3cc(N4CCCC4=O)ccc3N3CCOCC3)ccc2-1 [Example 16, hydrochloride]	IC50	< 10 nM
CS(=O)(=O)N1CCN(c2ccc(N3CCCC3=O)cc2COc2ccc3c(c2)OCCn2c-3c(C3CCCCC3)c3sc(C(=O)O)cc32)CC1	IC50	< 10 nM
O=C(O)c1cc2c(s1)c(C1CCCCC1)c1n2CCN(CCN2CCCCC2)c2cc(Cl)ccc2-1 [Example 20, dihydrochloride]	IC50	10 to 100 nM
O=C(O)c1cc2c(s1)c(C1CCCCC1)c1n2CCOc2c-1cccc2N(CCN1CCCCC1)CCN1CCCCC1 [Example 42, trihydrochloride]	IC50	< 10 nM
O=C(O)c1cc2c(s1)c(C1CCCCC1)c1n2CCN(CCN2CCCCCCC2)c2ccccc2-1 [Example 21, dihydrochloride]	IC50	< 10 nM
O=C(O)c1cc2c(s1)c(C1CCCCC1)c1n2CCN(CCN2CCCCC2)c2ccccc2-1 [Example 8, dihydrochloride]	IC50	10 to 100 nM
CN1CCn2c(c(C3CCCCC3)c3sc(C(=O)NC4(C(=O)Nc5ccc(/C=C/C(=O)O)cc5)CCC4)cc32)-c2ccc(Cl)cc21	IC50	10 to 100 nM
Cc1ccc2c(c1)N(CCN1CCCC(C)C1)CCn1c-2c(C2CCCCC2)c2sc(C(=O)O)cc21 (centres unmarked) [Example 26, dihydrochloride]	IC50	10 to 100 nM
O=C(O)c1cc2c(s1)c(C1CCCCC1)c1n2CCOc2c-1cccc2N(CCN1CCOCC1)CCN1CCOCC1 [Example 46, trihydrochloride]	IC50	< 10 nM
COCC[C@@H]1CCCN(CCN2CCn3c(c(C4CCCCC4)c4sc(C(=O)O)cc43)-c3ccc(Cl)cc32)C1 [Example 31, dihydrochloride]	IC50	< 10 nM
O=C(O)c1cc2c(s1)c(C1CCCCC1)c1n2CCN(CCN2CCCOCC2)c2cc(Cl)ccc2-1 [Example 32, dihydrochloride]	IC50	< 10 nM
CS(=O)(=O)c1ccc(N2CCOCC2)c(COc2ccc3c(c2)OCCn2c-3c(C3CCCCC3)c3sc(C(=O)O)cc32)c1	IC50	< 10 nM
COCC[C@@H]1CCCN(CCN2CCn3c(c(C4CCCCC4)c4sc(C(=O)O)cc43)-c3ccccc32)C1 [Example 23, dihydrochloride]	IC50	10 to 100 nM
Cc1ccc2c(c1)N(CCN1CCN(C(=O)OC(C)(C)C)CC1)CCn1c-2c(C2CCCCC2)c2sc(C(=O)O)cc21 [Example 33, hydrochloride]	IC50	10 to 100 nM
CC(C)(C)OC(=O)N1CCN(CCN2CCn3c(c(C4CCCCC4)c4sc(C(=O)O)cc43)-c3ccc(Cl)cc32)CC1 [Example 34, hydrochloride]	IC50	10 to 100 nM
COCC[C@@H]1CCCN(CCN2CCn3c(c(C4CCCCC4)c4sc(C(=O)O)cc43)-c3ccc(C)cc32)C1 [Example 27, dihydrochloride]	IC50	10 to 100 nM
CCN1CCN(C(=O)CN2CCn3c(c(C4CCCCC4)c4sc(C(=O)O)cc43)-c3ccc(C)cc32)CC1 [Example 35, dihydrochloride]	IC50	10 to 100 nM
